Molecular target: C-C motif chemokine 7 (Homo sapiens)
Assay: Binding affinity to human CCL7 at 100 uM by glycan microarray analysis
Measured Activity, listed per entry for reference.
Write down the numeric answer in % and omit the unit.

Check out these entries, answers already filled in.
NCCOCCO[C@@H]1O[C@@H](C(=O)O)[C@@H](O[C@@H]2O[C@@H](C(=O)O)[C@@H](O[C@@H]3O[C@@H](C(=O)O)[C@@H](OS(=O)(=O)O)[C@H](O)[C@H]3OS(=O)(=O)O)[C@H](O)[C@H]2OS(=O)(=O)O)[C@H](O)[C@H]1OS(=O)(=O)O 79
NCCOCCO[C@@H]1O[C@@H](C(=O)O)[C@@H](O[C@@H]2O[C@@H](C(=O)O)[C@@H](O[C@@H]3O[C@@H](C(=O)O)[C@@H](OS(=O)(=O)O)[C@H](O)[C@H]3O)[C@H](O)[C@H]2O)[C@H](O)[C@H]1O 75
NCCOCCO[C@@H]1O[C@@H](C(=O)O)[C@@H](O[C@@H]2O[C@@H](C(=O)O)[C@@H](OS(=O)(=O)O)[C@H](O)[C@H]2O)[C@H](O)[C@H]1O 55
NCCOCCO[C@@H]1O[C@@H](C(=O)O)[C@@H](O[C@@H]2O[C@@H](C(=O)O)[C@@H](O[C@@H]3O[C@@H](C(=O)O)[C@@H](O[C@@H]4O[C@@H](C(=O)O)[C@@H](OS(=O)(=O)O)[C@H](O)[C@H]4OS(=O)(=O)O)[C@H](O)[C@H]3OS(=O)(=O)O)[C@H](O)[C@H]2OS(=O)(=O)O)[C@H](O)[C@H]1OS(=O)(=O)O 80
NCCOCCO[C@@H]1O[C@@H](C(=O)O)[C@@H](OS(=O)(=O)O)[C@H](O)[C@H]1O 58

Query block: What does the data say about its Activity? Entry: NCCOCCO[C@@H]1O[C@@H](C(=O)O)[C@@H](O)[C@H](O)[C@H]1O
Result block: 30

Query block: What does the data say about its Activity? Entry: NCCOCCO[C@@H]1O[C@@H](C(=O)O)[C@@H](O[C@@H]2O[C@@H](C(=O)O)[C@@H](OS(=O)(=O)O)[C@H](O)[C@H]2OS(=O)(=O)O)[C@H](O)[C@H]1OS(=O)(=O)O
Result block: 87

Query block: What does the data say about its Activity? Entry: NCCOCCO[C@@H]1O[C@@H](C(=O)O)[C@@H](O[C@@H]2O[C@@H](C(=O)O)[C@@H](O[C@@H]3O[C@@H](C(=O)O)[C@@H](O[C@@H]4O[C@@H](C(=O)O)[C@@H](OS(=O)(=O)O)[C@H](O)[C@H]4O)[C@H](O)[C@H]3O)[C@H](O)[C@H]2O)[C@H](O)[C@H]1O
Result block: 12

Query block: What does the data say about its Activity? Entry: NCCOCCO[C@@H]1O[C@@H](C(=O)O)[C@@H](O[C@@H]2O[C@@H](C(=O)O)[C@@H](O[C@@H]3O[C@@H](C(=O)O)[C@@H](O[C@@H]4O[C@@H](C(=O)O)[C@@H](O)[C@H](O)[C@H]4O)[C@H](O)[C@H]3O)[C@H](O)[C@H]2O)[C@H](O)[C@H]1O
Result block: 33

---

Biological target: C-C motif chemokine 2 (Homo sapiens)
Sequence (P13500 24-99 limits assumed): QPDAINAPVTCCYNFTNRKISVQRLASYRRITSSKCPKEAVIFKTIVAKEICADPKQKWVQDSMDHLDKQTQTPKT
Assay: Binding affinity to human CCL2 at 100 uM by glycan microarray analysis
measuredAttribute: Activity (%)
Write down the numeric answer in % and omit the unit.

Check out these entries, answers already filled in.
NCCOCCO[C@@H]1O[C@@H](C(=O)O)[C@@H](O[C@@H]2O[C@@H](C(=O)O)[C@@H](O)[C@H](O)[C@H]2O)[C@H](O)[C@H]1O 2
NCCOCCO[C@@H]1O[C@@H](C(=O)O)[C@@H](O[C@@H]2O[C@@H](C(=O)O)[C@@H](O[C@@H]3O[C@@H](C(=O)O)[C@@H](O[C@@H]4O[C@@H](C(=O)O)[C@@H](O)[C@H](O)[C@H]4O)[C@H](O)[C@H]3O)[C@H](O)[C@H]2O)[C@H](O)[C@H]1O 2
NCCOCCO[C@@H]1O[C@@H](C(=O)O)[C@@H](OS(=O)(=O)O)[C@H](O)[C@H]1O 23
NCCOCCO[C@@H]1O[C@@H](C(=O)O)[C@@H](O)[C@H](O)[C@H]1O 4
NCCOCCO[C@@H]1O[C@@H](C(=O)O)[C@@H](O[C@@H]2O[C@@H](C(=O)O)[C@@H](O[C@@H]3O[C@@H](C(=O)O)[C@@H](O[C@@H]4O[C@@H](C(=O)O)[C@@H](OS(=O)(=O)O)[C@H](O)[C@H]4OS(=O)(=O)O)[C@H](O)[C@H]3OS(=O)(=O)O)[C@H](O)[C@H]2OS(=O)(=O)O)[C@H](O)[C@H]1OS(=O)(=O)O 88

Query block: Any idea what Activity came out for NCCOCCO[C@@H]1O[C@@H](C(=O)O)[C@@H](O[C@@H]2O[C@@H](C(=O)O)[C@@H](OS(=O)(=O)O)[C@H](O)[C@H]2O)[C@H](O)[C@H]1O on C-C motif chemokine 2 (Homo sapiens)?
Result block: 25

Query block: Any idea what Activity came out for NCCOCCO[C@@H]1O[C@@H](C(=O)O)[C@@H](O[C@@H]2O[C@@H](C(=O)O)[C@@H](OS(=O)(=O)O)[C@H](O)[C@H]2OS(=O)(=O)O)[C@H](O)[C@H]1OS(=O)(=O)O on C-C motif chemokine 2 (Homo sapiens)?
Result block: 69

Query block: Any idea what Activity came out for NCCOCCO[C@@H]1O[C@@H](C(=O)O)[C@@H](OS(=O)(=O)O)[C@H](O)[C@H]1OS(=O)(=O)O on C-C motif chemokine 2 (Homo sapiens)?
Result block: 66

Query block: Any idea what Activity came out for NCCOCCO[C@@H]1O[C@@H](C(=O)O)[C@@H](O[C@@H]2O[C@@H](C(=O)O)[C@@H](O[C@@H]3O[C@@H](C(=O)O)[C@@H](O[C@@H]4O[C@@H](C(=O)O)[C@@H](OS(=O)(=O)O)[C@H](O)[C@H]4O)[C@H](O)[C@H]3O)[C@H](O)[C@H]2O)[C@H](O)[C@H]1O on C-C motif chemokine 2 (Homo sapiens)?
Result block: 0

Query block: Any idea what Activity came out for NCCOCCO[C@@H]1O[C@@H](C(=O)O)[C@@H](O[C@@H]2O[C@@H](C(=O)O)[C@@H](O[C@@H]3O[C@@H](C(=O)O)[C@@H](O)[C@H](O)[C@H]3O)[C@H](O)[C@H]2O)[C@H](O)[C@H]1O on C-C motif chemokine 2 (Homo sapiens)?
Result block: 0

Query block: Any idea what Activity came out for NCCOCCO[C@@H]1O[C@@H](C(=O)O)[C@@H](O[C@@H]2O[C@@H](C(=O)O)[C@@H](O[C@@H]3O[C@@H](C(=O)O)[C@@H](OS(=O)(=O)O)[C@H](O)[C@H]3O)[C@H](O)[C@H]2O)[C@H](O)[C@H]1O on C-C motif chemokine 2 (Homo sapiens)?
Result block: 36

Query block: Any idea what Activity came out for NCCOCCO[C@@H]1O[C@@H](C(=O)O)[C@@H](O[C@@H]2O[C@@H](C(=O)O)[C@@H](O[C@@H]3O[C@@H](C(=O)O)[C@@H](OS(=O)(=O)O)[C@H](O)[C@H]3OS(=O)(=O)O)[C@H](O)[C@H]2OS(=O)(=O)O)[C@H](O)[C@H]1OS(=O)(=O)O on C-C motif chemokine 2 (Homo sapiens)?
Result block: 67

---

Target: Interleukin-8 (Homo sapiens) (UniProt P10145)
Sequence (P10145 whole entry): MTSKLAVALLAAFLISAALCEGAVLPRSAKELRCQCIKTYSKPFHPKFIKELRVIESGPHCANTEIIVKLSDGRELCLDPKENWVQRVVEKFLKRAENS
Test: Binding affinity to human CXCL8 at 100 uM by glycan microarray analysis
Measured Activity, listed per entry for reference.
Write down the numeric answer in % and omit the unit.

Check out these entries, answers already filled in.
NCCOCCO[C@@H]1O[C@@H](C(=O)O)[C@@H](O[C@@H]2O[C@@H](C(=O)O)[C@@H](O[C@@H]3O[C@@H](C(=O)O)[C@@H](OS(=O)(=O)O)[C@H](O)[C@H]3O)[C@H](O)[C@H]2O)[C@H](O)[C@H]1O 63
NCCOCCO[C@@H]1O[C@@H](C(=O)O)[C@@H](OS(=O)(=O)O)[C@H](O)[C@H]1O 62

Please turn your attention to the following entry.
Query block: Any idea what Activity came out for NCCOCCO[C@@H]1O[C@@H](C(=O)O)[C@@H](O[C@@H]2O[C@@H](C(=O)O)[C@@H](O)[C@H](O)[C@H]2O)[C@H](O)[C@H]1O on Interleukin-8 (Homo sapiens) (UniProt P10145)?
Result block: 12

---

Measured Activity, listed per entry for reference.
Molecular target: C-X-C motif chemokine 10 (Homo sapiens)
Experiment: Binding affinity to human CXCL10 at 100 uM by glycan microarray analysis
Write down the numeric answer in % and omit the unit.

NCCOCCO[C@@H]1O[C@@H](C(=O)O)[C@@H](O[C@@H]2O[C@@H](C(=O)O)[C@@H](O[C@@H]3O[C@@H](C(=O)O)[C@@H](O[C@@H]4O[C@@H](C(=O)O)[C@@H](OS(=O)(=O)O)[C@H](O)[C@H]4O)[C@H](O)[C@H]3O)[C@H](O)[C@H]2O)[C@H](O)[C@H]1O 23
NCCOCCO[C@@H]1O[C@@H](C(=O)O)[C@@H](O[C@@H]2O[C@@H](C(=O)O)[C@@H](O[C@@H]3O[C@@H](C(=O)O)[C@@H](O[C@@H]4O[C@@H](C(=O)O)[C@@H](OS(=O)(=O)O)[C@H](O)[C@H]4OS(=O)(=O)O)[C@H](O)[C@H]3OS(=O)(=O)O)[C@H](O)[C@H]2OS(=O)(=O)O)[C@H](O)[C@H]1OS(=O)(=O)O 87
NCCOCCO[C@@H]1O[C@@H](C(=O)O)[C@@H](OS(=O)(=O)O)[C@H](O)[C@H]1O 57

Please turn your attention to the following entry.
Query block: Any idea what Activity came out for NCCOCCO[C@@H]1O[C@@H](C(=O)O)[C@@H](O[C@@H]2O[C@@H](C(=O)O)[C@@H](O[C@@H]3O[C@@H](C(=O)O)[C@@H](OS(=O)(=O)O)[C@H](O)[C@H]3OS(=O)(=O)O)[C@H](O)[C@H]2OS(=O)(=O)O)[C@H](O)[C@H]1OS(=O)(=O)O on C-X-C motif chemokine 10 (Homo sapiens)?
Result block: 74
